Target: human orexin-2 receptor (hOX2R) (Homo sapiens)
Assay: FLIPR Ca2+ Flux Assay, CHO cells expressing hOX2R
Details: agonist 70 pM Ala-6,12 orexin-A
parameter-measured: IC50 (nM)

substance_smiles=COc1ccnc(O[C@@H]2CC[C@@H](C)N(C(=O)c3cccc(F)c3-n3nccn3)C2)c1CO data_value=81

(P) C[C@H](O)c1cccnc1O[C@@H]1CC[C@@H](C)N(C(=O)c2ccccc2-n2nccn2)C1
(Q) C[C@@H]1CC[C@@H](Oc2ncccc2C(C)(C)O)CN1C(=O)c1ccc(F)cc1-n1nccn1
[in] Hi there! Just curious which has the higher IC50 between P and Q . Please identify the chosen entry by its label.
[out] Q
(Q: 68 nM, P: 37 nM)

* * *

Target: human orexin-1 receptor (hOX1R) (Homo sapiens, UniProt O43613)
Test: FLIPR Ca2+ Flux Assay, CHO cells expressing hOX1R
Settings: agonist 70 pM Ala-6,12 orexin-A
parameter-measured: IC50 (nM)

Examples with answers:
substance_smiles=C[C@@H]1CC[C@@H](Oc2ncccc2C(C)(C)O)CN1C(=O)c1ccccc1N1CCCC1 unit_text=nM data_value=265
substance_smiles=C[C@@H]1CC[C@@H](Oc2ncccc2C(C)(C)O)CN1C(=O)c1ccccc1-c1ccccc1 unit_text=nM data_value=124

(I) C[C@@H]1CC[C@@H](Oc2ncccc2C(C)(C)O)CN1C(=O)c1ccccc1C1CC1
(II) COc1ccnc(O[C@@H]2CC[C@@H](C)N(C(=O)c3cccc(F)c3-n3nccn3)C2)c1CO
[in] Of the two listed items, which has the higher IC50? First: I Second: II Give the label under which the chosen entry appears.
[out] II
(II: 1990 nM, I: 94 nM)

* * *

Target: human orexin-1 receptor (hOX1R) (Homo sapiens)
Test: FLIPR Ca2+ Flux Assay, CHO cells expressing hOX1R
Details: agonist 70 pM Ala-6,12 orexin-A
pIC50: −log10 of the molar value.
parameter-measured: pIC50

The following compounds have reported results that may help.
compound=C#C[C@@H](O)c1cccnc1O[C@@H]1CC[C@@H](C)N(C(=O)c2ccccc2-n2nccn2)C1 parameter_measured=pIC50 data_value=7.19
compound=C[C@@H]1CC[C@@H](Oc2ncccc2C(C)(C)O)CN1C(=O)c1ccccc1C1CCC1 parameter_measured=pIC50 data_value=7.05

(1) C[C@@H]1CC[C@@H](Oc2ncccc2C(C)(C)O)CN1C(=O)c1ccccc1-c1ncccn1
(2) COc1ccnc(O[C@@H]2CC[C@@H](C)N(C(=O)c3ccccc3-n3nccn3)C2)c1C(C)O (stereo partly shown)
[in] Sort 1 and 2 by pIC50 descending and give the first. # answer = label of selected item
[out] 1
(1: 7.02, 2: 6.33)

* * *

Target: human orexin-1 receptor (hOX1R) (Homo sapiens)
Assay: FLIPR Ca2+ Flux Assay, CHO cells expressing hOX1R
Settings: agonist 70 pM Ala-6,12 orexin-A
Experimental: Chinese hamster ovary (CHO) cells expressing the human orexin-1 receptor (hOX1R) or the human orexin-2 receptor (hOX2R) were grown in Iscove's modified DMEM containing 2 mM L-glutamine, […], 1% hypoxanthine-thymidine supplement, 100 U/ml penicillin, 100 μg/ml streptomycin and 10% heat-inactivated fetal calf serum (FCS). The cells were seeded at 20,000 cells/well into Becton-Dickinson black 384-well clear bottom sterile plates coated with poly-D-lysine. […]
pIC50: −log10 of the molar value.
parameter-measured: pIC50

Example molecules with recorded pIC50:
molecule=CCc1ccnc(O[C@@H]2CC[C@@H](C)N(C(=O)c3ccccc3-n3nccn3)C2)c1CO assay_target="human orexin-1 receptor (hOX1R) (Homo sapiens)" parameter_measured=pIC50 data_value=6.99
molecule=C[C@@H]1CC[C@@H](Oc2ncccc2C(C)(C)O)CN1C(=O)c1ccc(F)cc1C1CC1 assay_target="human orexin-1 receptor (hOX1R) (Homo sapiens)" parameter_measured=pIC50 data_value=6.32
molecule=CC(C)c1ccnc(O[C@@H]2CC[C@@H](C)N(C(=O)c3ccccc3-n3nccn3)C2)c1CO assay_target="human orexin-1 receptor (hOX1R) (Homo sapiens)" parameter_measured=pIC50 data_value=7.10

(a) CC(O)c1c(C(F)(F)F)ccnc1O[C@@H]1CC[C@@H](C)N(C(=O)c2ccccc2-n2nccn2)C1 (stereo partly shown)
(b) Cc1ccnc(O[C@@H]2CC[C@@H](C)N(C(=O)c3ccccc3-n3nccn3)C2)c1CO
[in] Which shows the larger pIC50 value: a or b ? Return value: the label identifying the chosen record.
[out] b
(b: 7.16, a: 6.73)

* * *

Molecular target: human orexin-1 receptor (hOX1R) (Homo sapiens, UniProt O43613)
Construct: expressed in transfected cells; host or cells: Chinese hamster ovary (CHO) cells, grown under G418 selection
Sequence (O43613 1-425): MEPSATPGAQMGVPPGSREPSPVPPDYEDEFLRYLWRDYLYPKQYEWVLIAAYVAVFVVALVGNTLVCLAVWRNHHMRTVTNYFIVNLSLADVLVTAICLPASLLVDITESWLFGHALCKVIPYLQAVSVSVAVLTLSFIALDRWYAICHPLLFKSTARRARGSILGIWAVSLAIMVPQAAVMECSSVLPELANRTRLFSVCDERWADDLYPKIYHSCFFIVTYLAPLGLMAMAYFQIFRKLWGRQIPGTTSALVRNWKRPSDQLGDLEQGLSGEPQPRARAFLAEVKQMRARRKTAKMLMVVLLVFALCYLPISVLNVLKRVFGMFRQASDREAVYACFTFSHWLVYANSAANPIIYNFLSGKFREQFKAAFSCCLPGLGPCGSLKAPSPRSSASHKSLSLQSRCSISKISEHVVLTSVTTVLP
Test: FLIPR Ca2+ Flux Assay, CHO cells expressing hOX1R
Assay type: cell-based
Settings: agonist 70 pM Ala-6,12 orexin-A
parameter-measured: IC50 (nM)

substance_smiles=C[C@@H]1CC[C@@H](Oc2ncccc2[C@@H](O)C(F)(F)F)CN1C(=O)c1ccccc1-n1nccn1 unit_text=nM data_value=55
substance_smiles=COc1ccc(C(=O)N2C[C@H](Oc3ncccc3C(C)(C)O)CC[C@H]2C)c(-c2ccccc2)n1 unit_text=nM data_value=435
substance_smiles=C[C@@H]1CC[C@@H](Oc2nccc(C3CC3)c2CO)CN1C(=O)c1ccccc1-n1nccn1 unit_text=nM data_value=107

(a) C[C@@H]1CC[C@@H](Oc2ncccc2C(C)(C)O)CN1C(=O)c1cccc(F)c1-n1nccn1
(b) C[C@@H]1CC[C@@H](Oc2ncccc2[C@H](O)C(F)(F)F)CN1C(=O)c1ccccc1-n1nccn1
(c) C[C@@H]1CC[C@@H](Oc2ncccc2C(C)(C)O)CN1C(=O)c1cc(C#N)ccc1-n1nccn1
(d) CC[C@@H](O)c1cccnc1O[C@@H]1CC[C@@H](C)N(C(=O)c2ccccc2-n2nccn2)C1
(e) COc1ccc(C(=O)N2C[C@H](Oc3ncccc3CO)CC[C@H]2C)c(-n2nccn2)n1
[in] rank_up(items): orders items by reported IC50 in ascending numerical order. Write the labels in rank order as requested.
[out] d, a, c, b, e
(d: 46 nM, a: 189 nM, c: 418 nM, b: 904 nM, e: 10000 nM)

(A) C[C@@H]1CC[C@@H](Oc2ncccc2C(C)(C)O)CN1C(=O)c1cc(F)ccc1-c1ncccn1
(B) C[C@@H]1CC[C@@H](Oc2ncccc2C(C)(C)O)CN1C(=O)c1ccc(F)cc1-n1nccn1
[in] Between these two entries, A and B , state which has the higher IC50. Please indicate the selected item by its label.
[out] B
(B: 425 nM, A: 140 nM)

(A) C[C@@H]1CC[C@@H](Oc2ncccc2C(C)(C)O)CN1C(=O)c1ccccc1-n1nccn1
(B) Cc1ccc(CO)c(O[C@@H]2CC[C@@H](C)N(C(=O)c3ccccc3-n3nccn3)C2)n1
(C) COc1ccc(C(=O)N2C[C@H](Oc3ncccc3C(C)(C)O)CC[C@H]2C)c(C2CC2)c1
[in] With regard to IC50, arrange the entries in ascending order, please. Give me the labels in the order the question wants.
[out] A, B, C

* * *

Biological target: human orexin-2 receptor (hOX2R) (Homo sapiens)
Sequence (O43614 1-444): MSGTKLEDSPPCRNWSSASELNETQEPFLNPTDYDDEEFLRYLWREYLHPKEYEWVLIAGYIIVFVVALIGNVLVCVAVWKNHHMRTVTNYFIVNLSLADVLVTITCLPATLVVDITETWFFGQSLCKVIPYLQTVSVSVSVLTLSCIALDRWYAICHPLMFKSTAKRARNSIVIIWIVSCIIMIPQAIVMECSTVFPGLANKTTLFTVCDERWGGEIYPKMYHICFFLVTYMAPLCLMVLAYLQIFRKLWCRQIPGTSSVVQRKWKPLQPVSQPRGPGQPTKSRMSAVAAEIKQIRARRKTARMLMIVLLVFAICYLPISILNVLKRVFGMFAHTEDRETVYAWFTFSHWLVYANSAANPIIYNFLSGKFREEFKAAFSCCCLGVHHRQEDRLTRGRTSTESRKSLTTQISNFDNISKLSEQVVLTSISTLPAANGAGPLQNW
Assay: FLIPR Ca2+ Flux Assay, CHO cells expressing hOX2R
Details: agonist 70 pM Ala-6,12 orexin-A
pIC50: −log10 of the molar value.
parameter-measured: pIC50

compound=C[C@@H]1CC[C@@H](Oc2ncccc2C(C)(C)O)CN1C(=O)c1ccccc1-c1ccccc1 assay_target="human orexin-2 receptor (hOX2R) (Homo sapiens)" data_value=7.15
compound=CC[C@H](O)c1cccnc1O[C@@H]1CC[C@@H](C)N(C(=O)c2ccccc2-n2nccn2)C1 assay_target="human orexin-2 receptor (hOX2R) (Homo sapiens)" data_value=7.57

(P) C[C@@H]1CC[C@@H](Oc2ncccc2CO)CN1C(=O)c1ccccc1-n1nccn1
(Q) C[C@@H]1CC[C@@H](Oc2ncccc2[C@@H](C)O)CN1C(=O)c1ccccc1-n1nccn1
[in] # argmax over pIC50 for candidates P and Q Label of pick, please.
[out] P
(P: 7.74, Q: 7.31)
